Measured inhibition at 10 µM by item
# experimental_target: human bradykinin 1 receptor (B1R) (Homo sapiens, UniProt P46663)
# Construct: expressed in transfected cells; host or cells: CHO K1 cells
# Sequence (P46663 1-353): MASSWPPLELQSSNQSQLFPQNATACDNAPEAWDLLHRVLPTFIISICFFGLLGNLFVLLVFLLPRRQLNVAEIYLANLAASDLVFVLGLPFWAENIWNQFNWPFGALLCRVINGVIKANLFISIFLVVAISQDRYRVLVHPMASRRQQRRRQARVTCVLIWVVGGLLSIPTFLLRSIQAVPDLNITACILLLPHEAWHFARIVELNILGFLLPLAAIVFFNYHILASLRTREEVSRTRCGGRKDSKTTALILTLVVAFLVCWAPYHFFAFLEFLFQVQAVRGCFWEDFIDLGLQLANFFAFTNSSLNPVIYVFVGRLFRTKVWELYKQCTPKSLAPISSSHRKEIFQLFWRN
# method_description: Functional investigation on the human bradykinin 1 receptor (B1R), Ca2+ FLIPR assay in CHO K1 hB1R cells
# Assay type: cell-based
# condition_info: CHO-K1, B1R antagonism human; test substance 10 μM; % inhibition compared with the maximum achievable inhibition; read-out: B1R Ant. h [10 μM] % Inhibition
All answers are understood in %, so give the number only.

{"compound": "CN1CCN(C(CCc2ccccc2)C2CCN(C(=O)COCC3CCc4ccccc4N3S(=O)(=O)c3ccc(Cl)c(Cl)c3)CC2)CC1 (stereo not shown)", "experimental_target": "human bradykinin 1 receptor (B1R) (Homo sapiens, UniProt P46663)", "inhibition at 10 µM (%)": 104}
{"compound": "CN1CCN(C(c2cccc(F)c2)C2CCN(C(=O)COCC3CCc4ccccc4N3S(=O)(=O)c3ccc(Cl)c(Cl)c3)CC2)CC1 (stereo not shown)", "experimental_target": "human bradykinin 1 receptor (B1R) (Homo sapiens, UniProt P46663)", "inhibition at 10 µM (%)": 109}

Field inhibition at 10 µM (system: human bradykinin 1 receptor (B1R) (Homo sapiens, UniProt P46663)) for entry COc1cc(C)c(S(=O)(=O)N(C)CCOCC(=O)N2CCC(C(c3ccc(F)cc3)N3CCN(C)CC3)CC2)c(C)c1 (stereo not shown) = 105
